- target_entity: UniProtKB P14061
- Sequence (whole entry): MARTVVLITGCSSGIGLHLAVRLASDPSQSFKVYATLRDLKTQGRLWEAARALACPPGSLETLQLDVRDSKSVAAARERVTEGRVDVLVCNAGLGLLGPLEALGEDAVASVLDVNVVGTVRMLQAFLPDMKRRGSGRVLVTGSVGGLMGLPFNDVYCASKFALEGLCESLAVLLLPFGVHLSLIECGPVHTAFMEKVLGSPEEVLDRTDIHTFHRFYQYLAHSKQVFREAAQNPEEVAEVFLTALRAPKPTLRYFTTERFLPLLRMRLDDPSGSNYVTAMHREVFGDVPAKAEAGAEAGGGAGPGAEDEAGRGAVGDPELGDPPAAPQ
- assay_name: Inhibition of 17beta-HSD1 over-expressed in intact HEK293 cells at 10 uM
- Type: cell-based
If the reported inhibition equals or exceeds 50%, assign t. If not, assign f.

Prompt: Hello, I need to know if "CCCCN(C)C(=O)CCCCCC[C@H]1C[C@@H]2[C@H](CC[C@]3(C)C(=O)CC[C@@H]23)c2ccc(O)cc21" has measured inhibition not below 50%. Thanks!
Completion: f

Prompt: Hello, I need to know if "CCCCN(C)C(=O)CCCCCC[C@@H]1C[C@@H]2[C@H](CC[C@]3(C)[C@@H](O)CC[C@@H]23)c2cc(OC)c(O)cc21" has measured inhibition not below 50%. Thanks!
Completion: f

Prompt: Hello, I need to know if "CCCCN(C)C(=O)CCCCCS[C@@H]1C[C@@H]2[C@H](CC[C@]3(C)[C@@H](O)CC[C@@H]23)c2ccc(O)cc21" has measured inhibition not below 50%. Thanks!
Completion: t

Prompt: Hello, I need to know if "CCCCN(C)C(=O)CCCCCC[C@H]1C[C@@H]2[C@H](CC[C@]3(C)[C@@H](O)CC[C@@H]23)c2ccc(O)cc21" has measured inhibition not below 50%. Thanks!
Completion: f

Prompt: Hello, I need to know if "CCCCN(C)C(=O)CCCCCC[C@@H]1C[C@@H]2[C@H](CC[C@]3(C)C(=O)CC[C@@H]23)c2ccc(O)cc21" has measured inhibition not below 50%. Thanks!
Completion: f

Prompt: Hello, I need to know if "C[C@]12CC[C@@H]3c4ccc(O)cc4CC[C@H]3[C@@H]1CCC2=O" has measured inhibition not below 50%. Thanks!
Completion: t
